Data origin, for the record: PubChem BioAssay AID1159524

Experiment: High Throughput Screening for Foot and Mouth Disease Virus Antivirals; further: potency means the concentration at half of the fitted maximal effect; further: read-out not given here; nearly all actives have a fitted effect of over 45% in size
Conditions: FMDV antiviral cell-based qHTS; series mostly up to 57.9 µM
Out of some 410,000 compounds screened, about 5,100 (1.2%) were called active. Not shown: some 8% with an inconclusive outcome. This excerpt belongs to a sample that is enriched for actives.
measure: Potency

# count of solved cases: 10
CCN1CCN(C(=O)CCN2C(=O)c3ccccc3C2=O)CC1
inactive
O=C(Nc1cccc(F)c1)N1CCC2(CC1)CCN(S(=O)(=O)c1ccccc1)CC2
inactive
O=C(CN1C(=O)c2ccccc2S1(=O)=O)N1CCc2ccccc21
0.794 µM (active)
COc1ccccc1CN1CC2(CCN(S(=O)(=O)c3ccccc3)CC2)C1
inactive
c1ccc(-c2cnc(CN3CCN(c4ccccc4)CC3)o2)cc1
inactive
Cc1ccc(-n2c(=O)c3cccnc3n2CC(=O)NCc2ccc(F)cc2)cc1C
inactive
Cc1cccc(C(CC(=O)NCC2(c3ccccc3)CCCC2)c2ccccc2)c1O (stereo unspecified)
inactive
CCSc1ncc(Cl)c(C(=O)Nc2c(C(=O)c3ccccc3)oc3ccccc23)n1
inactive
O=C(/C(=C/c1cccc(Cl)c1)c1nc2ccccc2[nH]1)c1ccccc1
7.94 µM (active)
CC(=O)N1CCN(Cc2cc(=O)oc3cc(C)ccc23)CC1
inactive

INPUT: Given Cc1ccc(NC(=O)CN2c3ccccc3S(=O)(=O)c3ccccc32)cc1F , state its recorded Potency.
OUTPUT: inactive

INPUT: GET /values?readout=Potency&item= COc1ccc2[nH]cc(CCNc3nc(-c4cccc(NS(C)(=O)=O)c4)nc4ccccc34)c2c1
OUTPUT: inactive

INPUT: Which Potency value belongs to Cc1nc2ccn(Cc3cccs3)c(=O)c2cc1C(=O)NCc1ccc(Cl)cc1 ?
OUTPUT: inactive

INPUT: Query (compound): COC(=O)C1CCCCN1Cc1ccc2c(c1)CN(Cc1cc(OC)c3c(c1)OCO3)CCO2 (stereo unspecified) ; field requested: Potency
OUTPUT: inactive

INPUT: Recorded Potency for COc1ccc2c(CN3CCN(S(=O)(=O)c4cccs4)CC3)cc(=O)oc2c1 , please?
OUTPUT: 39.8 µM (active)

INPUT: Name the recorded Potency for CCOC(=O)C1CCCN(C(=O)c2cncc(Br)c2)C1 (stereo unspecified) .
OUTPUT: inactive

INPUT: State the recorded Potency for this entry: FC(F)(F)c1ccccc1-c1cc(NCc2ccccc2)ncn1
OUTPUT: inactive

INPUT: Tell me the measured Potency of N#Cc1ccc(CN2CCCC3(CCN(C(=O)c4ccco4)CC3)C2)cc1 , please.
OUTPUT: inactive

INPUT: I would be grateful if you could share the reported Potency for COc1ccccc1Cc1nc2ccccc2nc1SCC(=O)N1CCCc2ccccc21 .
OUTPUT: inactive

INPUT: Tell me the measured Potency of O=C(CCc1ccccc1F)N1CCN(c2ccccc2)CC1 , please.
OUTPUT: inactive

INPUT: Reported Potency, compound CCCS(=O)(=O)c1ncc(Cl)c(C(=O)Nc2scc(-c3ccccc3)c2C(=O)OCC)n1 : ____
OUTPUT: 25.1 µM (active)

INPUT: Reported Potency for OCCN1CCN(c2ncnc3c2ncn3[C@H]2CN(Cc3ccco3)C[C@@H](CO)O2)CC1 : what is it?
OUTPUT: inactive

INPUT: Would you mind telling me what Potency value was observed for O=C(c1cccc(Cn2cccn2)c1)N1CCOc2c(cc(-c3csc4ccccc34)cc2OC2CCOC2)C1 (stereo unspecified) ?
OUTPUT: inactive

INPUT: Suppose we examine the compound N#C/C(=C\c1ccccc1F)c1nc2ccccc2c(=O)[nH]1 ; what Potency value has been reported?
OUTPUT: inactive

INPUT: State the recorded Potency for this entry: COc1ccccc1C(=O)N[C@@H]1c2ccccc2C2(CCN(C(=O)c3csnn3)CC2)[C@H]1OC
OUTPUT: inactive

INPUT: Please report the recorded Potency for Fc1cccc(/C=N\N=C/c2cccc(F)c2)c1 .
OUTPUT: inactive

---

Test: High Throughput Screening for Foot and Mouth Disease Virus Antivirals; further: potency means the concentration at half of the fitted maximal effect; further: read-out not given here; nearly all actives have a fitted effect of over 45% in size
Settings: FMDV antiviral cell-based qHTS; series mostly up to 57.9 µM
The whole screen tested about 410,000 compounds, of which about 5,100 (1.2%) were called active. Inconclusive results (about 8%) are left out. Shown is part of a subset that was picked to be rich in actives.
measure: Potency

The cases that follow already have their Potency on record.
Cc1cccc2c3c(ccc12)C1=C(C(=O)C3=O)C(C)CO1 (stereo not given)
inactive
O=C(O)c1ccc2c(c1)C(=O)N(c1ccc(/C=C/C(=O)c3ccccc3)cc1)C2=O
14.1 µM (active)
CCOc1cccc(=NC2CCCCC2)c2c(C)[nH]c(C)c12
28.2 µM (active)
C/C=C(\C)C(=O)OC1C(OC(=O)C2(C)OC2C)c2cc3ccc(=O)oc3cc2OC1(C)C (stereo not given)
inactive
CCN(C(=O)CSc1nnnn1-c1ccccc1OC)C1CCS(=O)(=O)C1 (stereo not given)
inactive

INPUT: I'd like to know its Potency. The molecule in question is COc1ccccc1-n1nnnc1S(=O)(=O)Cc1ccc(Cl)cc1
OUTPUT: 10 µM (active)

INPUT: Which value of Potency has been reported for COc1ccccc1CN(C)c1nnnn1-c1ccccc1 in the records?
OUTPUT: inactive

INPUT: # get_value(readout='Potency', item= Cc1ccc(-n2c(SCC(=O)c3ccccc3)nc3c([nH]c4ccccc43)c2=O)cc1 )
OUTPUT: inactive

INPUT: # input molecule: COc1cc(NC(=O)Cn2c(=O)n(Cc3ccco3)c(=O)c3oc4ccccc4c32)cc(OC)c1 ; wanted: its Potency
OUTPUT: inactive

INPUT: What value of measured Potency is listed for CC1=C(c2ccc(F)cc2)S(=O)(=O)N=C1N1CCC(C(=O)NCCc2ccccc2C)CC1 ?
OUTPUT: inactive

---

Assay: High Throughput Screening for Foot and Mouth Disease Virus Antivirals; further: read-out not given here; nearly all actives have a fitted effect of over 45% in size; on activity change, negative = inhibition: on the % scale 0 is the no-effect control and ±100 the full control effect
Conditions: FMDV antiviral cell-based qHTS; series mostly up to 57.9 µM
The whole screen tested about 410,000 compounds, of which about 5,100 (1.2%) were called active. Roughly 8% stayed inconclusive and do not appear here. The entries come from a sample that favours actives as a whole.
measure: activity change, negative = inhibition

INPUT: What does the data say about its activity change, negative = inhibition? Entry: CCCCC/C=C\CC1OC1CCCCCCCC(=O)O (stereo not given)
OUTPUT: -2.3% [at 0.463 µM] (inactive)

INPUT: Name the reported activity change, negative = inhibition value associated with the compound CCCCC/C=C\C/C=C\C/C=C\CCCCCCC(=O)NCCO
OUTPUT: -10.3% [at 6.7 µM] (inactive)

INPUT: Record request: activity change, negative = inhibition value, item CCCCC/C=C\C/C=C\C/C=C\C=C\[C@H](CCCC(=O)O)OO
OUTPUT: -15.4% [at 0.463 µM] (inactive)

INPUT: Would you kindly share the measured activity change, negative = inhibition for CCCCC/C=C\C/C=C\C/C=C\C/C=C\CCCCCC(=O)NCCO ?
OUTPUT: -8.95% [at 6.7 µM] (inactive)

INPUT: GET /values?readout=activity change, negative = inhibition&item= CCCCC/C=C\C/C=C\CCCCCCCCCC(=O)O
OUTPUT: -17.4% [at 6.7 µM] (inactive)

---

Assay: High Throughput Screening for Foot and Mouth Disease Virus Antivirals; further: potency means the concentration at half of the fitted maximal effect; further: read-out not given here; nearly all actives have a fitted effect of over 45% in size
Settings: FMDV antiviral cell-based qHTS; series mostly up to 57.9 µM
Screen size: about 410,000 compounds; about 5,100 (1.2%) were called active. Inconclusive results (about 8%) are left out. The sample holds actives, similar compounds and a random draw of the others, so the mix is not that of the screen.
measure: Potency

Past entries and their recorded results:
CCOC(=O)C1=C(c2ccc(OC)cc2)C(=O)c2ccccc2C1=O
3.55 µM (active)
CC(=O)c1cc(CN2CCC(C(=O)Nc3cccc(-c4cscn4)c3)CC2)cs1
20 µM (active)
CCN(CC)S(=O)(=O)c1ccc2c(c1)N(CC(=O)NCC(C)c1ccccc1)C(=O)CO2 (configuration not stated)
inactive
COc1ccc(Nc2ncc(C(=O)Nc3cc(C)ccc3OC)c3ccccc23)cc1
inactive
COc1ccc(C(=O)Nc2ccccc2C(=O)N/N=C/c2ccc(O)c(OC)c2)cc1
3.98 µM (active)

INPUT: Look up Potency: CCOc1ccc(CNC(=O)c2cccc(Nc3nc4ccccc4n4nnnc34)c2)cc1OC
OUTPUT: 7.08 µM (active)

INPUT: Tell me the measured Potency of CCn1cc(CN2CCC(C(=O)Nc3cccc(-c4cccc(Cl)c4)c3)CC2)cn1 , please.
OUTPUT: inactive

INPUT: Request the reported Potency associated with CC(C)(CNC(=O)Cc1ccc(Cl)cc1Cl)N1CCOCC1
OUTPUT: inactive

INPUT: What value of Potency has been recorded for this entry: COc1ccccc1N1CCN(c2ncnc3onc(-c4cccc(Cl)c4)c23)CC1
OUTPUT: inactive

INPUT: Given the entry CCc1ccc(-n2c(SCc3cc(=O)n4cc(Br)ccc4n3)nc3[nH]ncc3c2=O)cc1 , report its measured Potency.
OUTPUT: 31.6 µM (active)
